- Tested on: lung cancer cells A549
- PROCEDURE_TEXT: MTT antiproliferative assay, A549
- Type: cell-based
- RUN_PARAMETERS: Homo sapiens, A549, 24 h
Please provide measured IC50 for the entries that follow.

Note down IC50 recorded for COc1ccc(/C=C2\CCC/C(=C\c3ccc(OC)nc3)C2=O)cn1
> 60 µM

Note down IC50 recorded for COc1cc(/C=C2\CN(C)C/C(=C\c3ccc(OC4CCCCO4)c(OC)c3)C2=O)ccc1OC1CCCCO1 (stereo not shown)
21.4 µM

Note down IC50 recorded for COc1cc(/C=C2\CN(C(C)C)C/C(=C\c3cc(OC)c(O)c(OC)c3)C2=O)cc(OC)c1O
5.66 µM

Note down IC50 recorded for Cc1cc(/C=C2\CN(C(C)C)C/C(=C\c3cc(C)c(O)c(C)c3)C2=O)cc(C)c1O
36.1 µM

Note down IC50 recorded for Cc1cc(/C=C2\CNC/C(=C\c3cc(C)c(O)c(C)c3)C2=O)cc(C)c1O
> 60 µM

Note down IC50 recorded for COc1ccc(/C=C/C(=O)CC(=O)/C=C/c2ccc(OC)nc2)cn1
> 60 µM

Note down IC50 recorded for COc1ccc(/C=C/C(=O)/C=C/c2ccc(OC)nc2)cn1
25.9 µM

Note down IC50 recorded for COc1cc(/C=C/C(=O)CC(=O)/C=C/c2ccc(O)c(OC)c2)ccc1O
37.2 µM

Note down IC50 recorded for COc1ccc(/C=C2\CN(C(C)C)C/C(=C\c3ccc(OC)nc3)C2=O)cn1
28 µM

Note down IC50 recorded for COc1ccc(/C=C2\CN(C)C/C(=C\c3ccc(OC)nc3)C2=O)cn1
22.9 µM

Values from paper PMC11589483
